Target: T1, human CX3CR1 (human, UniProt P49238 1-355)
T1 sequence: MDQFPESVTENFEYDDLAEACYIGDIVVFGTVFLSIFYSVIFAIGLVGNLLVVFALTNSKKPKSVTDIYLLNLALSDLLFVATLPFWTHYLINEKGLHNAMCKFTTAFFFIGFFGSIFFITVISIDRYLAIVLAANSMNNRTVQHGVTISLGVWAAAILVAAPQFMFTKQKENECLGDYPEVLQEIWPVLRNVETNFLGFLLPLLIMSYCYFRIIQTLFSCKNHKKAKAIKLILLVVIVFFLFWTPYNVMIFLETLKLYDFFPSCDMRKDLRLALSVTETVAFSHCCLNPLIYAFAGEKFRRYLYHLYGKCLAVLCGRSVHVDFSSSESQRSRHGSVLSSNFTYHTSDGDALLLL
Test: cell-based or functional assay
Labelling field: enter y if recorded IC50, fractalkine induced chemotaxis is less than 70 nM. Enter n if it equals or exceeds that cut-off.

Binder	Class
CX3CR1BIIPMP54A12 (VHH, also called CX3CR1BII54A12; not shown: C-terminal c-myc and His6 tags) VHH: EVQLVESGGGSVQAGESLRLSCAASGSIFSSNAMAWYRQAPGKQRDLVAVINSVGITKYADSVKGRFTISGDNAKNTVYLQMNSLKPEDTAVYYCTSDARRGWDTRYWGQGTQVTVSS	n
CX3CR1BIIPMP54B3 (VHH, also called 54B03; not shown: C-terminal c-myc and His6 tags) VHH: EVQLVESGGGSVQAGESLRLSCAASGSIFSSNAMAWYRQAPGKQRDLVAAINSVGITKYADSVKGRFTISRDNAKNTVYLQMNSLKPEDTAVYYCTSDPRRGWDTRYWGQGTQVTVSS	n
CX3CR1BIIPMP11H11 (VHH, family 9; also called CX3CR1BII11H11; not shown: C-terminal c-myc and His6 tags) VHH: EVQLVESGGGLVQAGGSLRLSCVASGRTFSSYAMGWFRQAPGKERAFVAGISGSASRKYYADSVKGRFTVSRDNARNTVYLQMNSLKPEDTAVYYCAASNSYPKVQFDYYGQGTQVTVSS	n
CX3CR1BIIPMP54A7 (VHH, also called 54A07; not shown: C-terminal c-myc and His6 tags) VHH: EVQLVESGGGSVQAGESLRLSCAASGTIFSSNAMAWYRQAPGKQRDLVAGINSVDITKYADSVKGRFTISRDNAKNTVYLQMNSLKPEDTAVYYCTSDPRRGWNTRYWGQGTQVTVSS	y
CX3CR1BIIPMP66B02 (VHH, alexa647 label where used as labeled competitor (Table 23), also called CX3CR1BII66B02; C100CX3CR1BII66B02; not shown: C-terminal c-myc and His6 tags) VHH: EVQLVESGGGSVQAGESLRLSCAASGSIFSSNAMAWYRQAPGKRRDLVAAINSVGVTKYADSVKGRFTISRDNAKNTVYLQMNSLKPEDTAVYYCTSDPRRGWDTRYWGQGTQVTVSS	y
CX3CR1BIIPMP66G01 (VHH, also called CX3CR1BII66G01; not shown: C-terminal c-myc and His6 tags) VHH: EMQLVESGGGSVQAGESLRLSCAASGSIFSSNAMAWYRQAPGKQRDLVALINSVGITKYADSVKGRFTISRDNAKNTVYLQMNSLKPEDTAVYYCTSDGRRGWDTRYWGQGTQVTVSS	n
